# study_target: Procathepsin L (Homo sapiens)
# Sequence (P07711 whole entry): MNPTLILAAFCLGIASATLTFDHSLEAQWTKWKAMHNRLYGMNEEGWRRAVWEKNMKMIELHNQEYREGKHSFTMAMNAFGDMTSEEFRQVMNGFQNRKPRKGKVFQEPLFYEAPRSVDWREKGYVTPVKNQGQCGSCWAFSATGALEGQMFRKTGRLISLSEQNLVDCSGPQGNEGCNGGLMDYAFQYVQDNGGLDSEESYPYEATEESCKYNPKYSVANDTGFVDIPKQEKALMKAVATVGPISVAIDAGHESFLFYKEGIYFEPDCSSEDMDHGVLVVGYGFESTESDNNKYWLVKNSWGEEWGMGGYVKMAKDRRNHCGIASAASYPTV
readout: pIC50
Give bare numbers, as −log10 of the molar value.

Which value of pIC50 has been reported for CCOC(=O)/C=C/[C@H](C[C@@H]1CCNC1=O)NC(=O)[C@H](Cc1ccccc1)NC(=O)[C@@H](N)Cc1ccccc1 in the records?
7.22

###

# System: SARS-CoV-2
# method: Antiviral activity against wild type SARS-CoV-2 Omicron BA.5 infected in HEK293T cells assessed as reduction in viral replication measured after 48 hrs by Nano-Glo luciferase assay
# Type: functional, organism-based
# condition_context: Severe acute respiratory syndrome coronavirus 2, HEK-293T
readout: EC50 (nM)
One number for each entry, in nM.

Reported EC50 for SARS-CoV-2, given CCCCCCCCCC[C@@H]1CCC[C@]2(C=C(CO)[C@H]3CC(=O)C(C)=C[C@H]3O2)O1 ?
160
